# EC50 listing for each entry below
- system-tested: PRMT5-MEP50 enzyme complex (Homo sapiens, UniProt O14744)
- Construct: Full-length (FL)-PRMT5-MEP50 enzyme complex (recombinant proteins from baculovirus-transfected Sf21 cells: FL-PRMT5; MW=73837 kDa and FL-MEP50; MW=38614); made in house; host or cells: baculovirus-transfected Sf21 cells
- Sequence (O14744 whole entry): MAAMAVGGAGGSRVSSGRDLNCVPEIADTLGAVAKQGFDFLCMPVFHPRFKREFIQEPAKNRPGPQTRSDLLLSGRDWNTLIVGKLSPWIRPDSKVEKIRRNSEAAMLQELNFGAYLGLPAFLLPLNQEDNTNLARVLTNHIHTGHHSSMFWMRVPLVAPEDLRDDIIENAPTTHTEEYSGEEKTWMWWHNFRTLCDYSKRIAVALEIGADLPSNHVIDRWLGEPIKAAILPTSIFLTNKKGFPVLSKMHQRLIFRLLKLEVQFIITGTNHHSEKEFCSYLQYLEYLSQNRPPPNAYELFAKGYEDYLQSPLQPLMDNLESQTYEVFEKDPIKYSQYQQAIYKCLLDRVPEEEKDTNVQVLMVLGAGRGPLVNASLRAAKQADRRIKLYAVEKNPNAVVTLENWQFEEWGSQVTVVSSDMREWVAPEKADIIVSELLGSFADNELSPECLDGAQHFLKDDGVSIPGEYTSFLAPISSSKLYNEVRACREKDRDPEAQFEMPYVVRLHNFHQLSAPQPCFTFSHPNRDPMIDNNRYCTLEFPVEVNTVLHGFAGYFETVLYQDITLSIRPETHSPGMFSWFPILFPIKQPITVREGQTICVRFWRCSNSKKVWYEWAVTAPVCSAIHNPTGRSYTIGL
- Sequence (Q9BQA1 whole entry partner): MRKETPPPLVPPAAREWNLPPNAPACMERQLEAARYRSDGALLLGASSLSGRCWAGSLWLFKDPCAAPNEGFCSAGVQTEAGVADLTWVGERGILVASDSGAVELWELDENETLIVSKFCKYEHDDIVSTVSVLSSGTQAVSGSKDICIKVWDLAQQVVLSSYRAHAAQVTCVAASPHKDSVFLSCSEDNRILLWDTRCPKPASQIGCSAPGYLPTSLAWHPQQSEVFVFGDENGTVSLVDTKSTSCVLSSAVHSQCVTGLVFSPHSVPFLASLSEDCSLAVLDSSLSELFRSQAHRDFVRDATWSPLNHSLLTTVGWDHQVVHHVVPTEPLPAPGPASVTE
- test-description: PRMT5-MEP50 Enzyme Methylation Assay (Version B)
- Format: biochemical
- run-conditions: second of two EC50s: 7 parameters biphasic model; read-out: Enzyme Methylation Assay Version B (EC50_2)
# number only, unit µM dropped from output

[
  {
    "molecule": "CC(=O)N1CCC(Nc2cc(C(=O)N3CC[C@H](N4CCc5ccccc5C4)[C@@H](O)C3)ccn2)C(F)(F)C1 (single isomer, unassigned) [Example 6]",
    "assay-endpoint": "EC50",
    "observed-result": 2.69
  },
  {
    "molecule": "CCOc1cc(C(=O)N2C3CCC2COC3)ccc1C(=O)N1CC[C@@H](N2CCc3ccccc3C2)[C@H](O)C1",
    "assay-endpoint": "EC50",
    "observed-result": 20.6
  },
  {
    "molecule": "CC(=O)N1CCC(Nc2nccc(C(=O)N3CC[C@H](N4CCc5ccccc5C4)[C@@H](O)C3)c2F)C(F)(F)C1 (single isomer, unassigned) [Example 14]",
    "assay-endpoint": "EC50",
    "observed-result": 17.2
  }
]

Reported EC50, molecule "O=C(c1ccc(C(=O)N2C3CCC2COC3)cc1)N1CC[C@H](N2CCc3c(F)cccc3C2)[C@@H](O)C1" : ____
28.6

Reported EC50, molecule CC1OC(=O)Nc2cc(C(=O)N3CC[C@H](N4CCc5ccccc5C4)[C@@H](O)C3)c(F)cc21 (single isomer, unassigned) [Example 100] : ____
1.72

Reported EC50, molecule CCC1Oc2ccc(C(=O)N3CC[C@@H](N4CCc5ccccc5C4)[C@H](O)C3)cc2NC1=O (single isomer, unassigned) [Example 12] : ____
45.7

Reported EC50, molecule "O=C(c1ccc(C(=O)N2C3CCC2COC3)cc1)N1CC[C@H](N2CCc3ccc(F)cc3C2)[C@@H](O)C1" : ____
8.11

Reported EC50, molecule "CC1(C)OC(=O)Nc2cc(C(=O)N3CC[C@H](N4CCc5ccccc5C4)[C@@H](O)C3)ccc21" : ____
2.85

Reported EC50, molecule "CC(=O)N1CCC(Nc2cc(C(=O)N3CC[C@H](N4CCc5ccccc5C4)[C@@H](O)C3)c(Cl)cn2)CC1" : ____
8.91
